Values compiled from paper PMC12390684.

TARGET_OR_SYSTEM: IN-GCN2 interaction (6xHis-IN / GST-GCN2) (UniProt P04585+Q9P2K8)
Sequence (Q9P2K8 192-1024, other chains not shown): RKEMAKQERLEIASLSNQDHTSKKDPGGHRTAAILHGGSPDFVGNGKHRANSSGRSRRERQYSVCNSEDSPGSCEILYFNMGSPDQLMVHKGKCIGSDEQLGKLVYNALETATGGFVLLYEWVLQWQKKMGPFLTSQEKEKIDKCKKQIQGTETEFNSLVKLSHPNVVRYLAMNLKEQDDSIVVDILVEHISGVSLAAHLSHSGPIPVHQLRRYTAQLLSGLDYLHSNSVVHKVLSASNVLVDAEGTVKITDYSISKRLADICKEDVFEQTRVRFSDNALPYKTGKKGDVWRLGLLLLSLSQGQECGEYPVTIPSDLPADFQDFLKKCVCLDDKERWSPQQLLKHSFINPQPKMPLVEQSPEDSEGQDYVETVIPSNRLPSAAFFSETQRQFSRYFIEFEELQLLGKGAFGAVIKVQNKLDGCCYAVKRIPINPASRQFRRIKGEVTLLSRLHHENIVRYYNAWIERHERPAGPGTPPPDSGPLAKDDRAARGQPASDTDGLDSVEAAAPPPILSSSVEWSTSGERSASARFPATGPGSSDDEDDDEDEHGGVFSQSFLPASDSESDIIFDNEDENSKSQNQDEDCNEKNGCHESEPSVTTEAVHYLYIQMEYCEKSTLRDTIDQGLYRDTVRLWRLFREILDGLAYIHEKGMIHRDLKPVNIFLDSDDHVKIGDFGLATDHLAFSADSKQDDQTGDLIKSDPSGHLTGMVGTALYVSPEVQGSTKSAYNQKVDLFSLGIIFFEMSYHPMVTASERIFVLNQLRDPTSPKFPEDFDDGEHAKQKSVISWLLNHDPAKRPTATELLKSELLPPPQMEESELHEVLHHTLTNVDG
ASSAY_OVERVIEW: biochemical
Assay type: binding, HIV-1 IN; human GCN2
CONDITION_DETAILS: screen, single dose 100 µM, single replicate; residual AlphaLISA signal normalized to DMSO control
Overview of recorded IN-GCN2 interaction (%) for various molecules

MOLECULE	TARGET_OR_SYSTEM	UNIT_OF_MEASUREMENT	IN-GCN2 interaction (%)
O=C(O)/C=C(/CC(=O)O)C(=O)O	IN-GCN2 interaction (6xHis-IN / GST-GCN2) (UniProt P04585+Q9P2K8)	%	85.71
CCCCCCCCCCCCCCCC(=O)OC[C@H]1O[C@@H](n2ccc(N)nc2=O)[C@@H](O)[C@@H]1O	IN-GCN2 interaction (6xHis-IN / GST-GCN2) (UniProt P04585+Q9P2K8)	%	92.71
C/C(=C\CC1=C(O)c2ccccc2C(=O)C1=O)CO	IN-GCN2 interaction (6xHis-IN / GST-GCN2) (UniProt P04585+Q9P2K8)	%	132.67
C=C1C(=O)O[C@@H]2C[C@@]3(C)CCC[C@H](C)C3=C[C@H]12	IN-GCN2 interaction (6xHis-IN / GST-GCN2) (UniProt P04585+Q9P2K8)	%	117.43
CN(C)c1ccc2c(SCC(=O)OCC(=O)[C@@]3(O)CC[C@H]4[C@@H]5CCC6=CC(=O)C=C[C@]6(C)[C@H]5C(=O)C[C@@]43C)c3ccc(N(C)C)cc3nc2c1	IN-GCN2 interaction (6xHis-IN / GST-GCN2) (UniProt P04585+Q9P2K8)	%	15.16
COc1ccc2c(c1OC)-c1c3c(cc4c1[C@H](C2)N(C)CC4)OCO3	IN-GCN2 interaction (6xHis-IN / GST-GCN2) (UniProt P04585+Q9P2K8)	%	46.45
COc1ccc2c(c1OC)CN1CCc3cc4c(cc3C1C2)OCO4 (centres unmarked)	IN-GCN2 interaction (6xHis-IN / GST-GCN2) (UniProt P04585+Q9P2K8)	%	108.61
CCOc1cc2c(cc1OC)CCN[C@H]2Cc1ccc(O)cc1	IN-GCN2 interaction (6xHis-IN / GST-GCN2) (UniProt P04585+Q9P2K8)	%	75.32
